- measured target: Amyloid-beta precursor protein (Homo sapiens)
- Sequence (P05067 whole entry): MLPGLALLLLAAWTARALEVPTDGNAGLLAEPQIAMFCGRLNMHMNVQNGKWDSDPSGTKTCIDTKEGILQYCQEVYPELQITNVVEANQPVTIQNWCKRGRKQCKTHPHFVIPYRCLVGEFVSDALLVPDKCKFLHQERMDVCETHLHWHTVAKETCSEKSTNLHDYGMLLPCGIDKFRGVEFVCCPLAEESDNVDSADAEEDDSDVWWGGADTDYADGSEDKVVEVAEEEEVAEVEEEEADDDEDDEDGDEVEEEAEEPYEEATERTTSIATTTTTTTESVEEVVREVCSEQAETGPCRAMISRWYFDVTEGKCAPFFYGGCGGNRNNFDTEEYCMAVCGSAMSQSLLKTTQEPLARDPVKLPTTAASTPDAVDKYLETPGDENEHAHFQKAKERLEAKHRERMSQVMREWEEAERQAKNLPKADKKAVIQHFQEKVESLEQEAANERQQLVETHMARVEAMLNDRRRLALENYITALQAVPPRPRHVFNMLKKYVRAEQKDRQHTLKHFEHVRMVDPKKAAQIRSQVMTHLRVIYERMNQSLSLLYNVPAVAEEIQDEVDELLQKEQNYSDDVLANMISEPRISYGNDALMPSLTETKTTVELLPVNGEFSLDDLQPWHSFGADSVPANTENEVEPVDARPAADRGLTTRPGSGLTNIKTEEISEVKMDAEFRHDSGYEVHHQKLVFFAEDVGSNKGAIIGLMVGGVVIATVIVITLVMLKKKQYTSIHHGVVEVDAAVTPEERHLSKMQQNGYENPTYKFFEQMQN
- protocol notes: Competitive radioligand binding to pathological aggregated beta amyloid in AD tissue
assay readout: pKi
Please report pKi as the negative decimal logarithm of the molar concentration, giving only the number.

**Q:** Give the observed pKi of FCOC[C@H]1CN(c2ncc(/C=C/c3ccc(-n4ccnc4)nc3)cn2)CCN1c1ncccn1 for Amyloid-beta precursor protein (Homo sapiens).
**A:** 7.00

**Q:** Look up Amyloid-beta precursor protein (Homo sapiens) data: pKi of COC[C@H]1CN(c2ncccn2)CCN1c1ncc(/C=C/c2ccc(-n3ccnc3)nc2)cn1 , then report it.
**A:** 5.40

**Q:** Fill in pKi for COC[C@H]1CN(c2ncc(/C=C/c3ccc(-n4ccnc4)nc3)cn2)CCN1c1ncc(OCC(O)CF)cn1 (stereo partly specified) tested with Amyloid-beta precursor protein (Homo sapiens).
**A:** 5.40

**Q:** Given COC[C@H]1CN(c2ncc(C#Cc3ccc(-n4ccnc4)nc3)cn2)CCN1c1cc(F)ncn1 , report its pKi on Amyloid-beta precursor protein (Homo sapiens).
**A:** 5.40

**Q:** State recorded pKi with Amyloid-beta precursor protein (Homo sapiens), entry COC[C@H]1CN(c2ncc(/C=C/c3ccc(-n4ccnc4)nc3)cn2)CCN1c1ncc(OCCF)cn1 , no comment.
**A:** 5.40

**Q:** Report pKi from Amyloid-beta precursor protein (Homo sapiens) testing of FCCOC[C@H]1CN(c2ncc(/C=C/c3ccc(-n4ccnc4)nc3)cn2)CCN1c1ncccn1
**A:** 5.40

FYI, the data here is from BindingDB's records for patent WO2024186584.
